- Test: LogP by HPLC on reversed phase columns (EEC directive 79/831 Annex V.A8)
- Type: physicochemical
Property Label: Log P[a]

compound=N#CC1(C(=O)O)CCN(C(=S)Nc2cccc(Cl)c2)CC1 result_number=2.01
compound="CCOC(=O)C1(c2nc(C3=NOC(c4ccccc4OS(C)(=O)=O)C3)cs2)CCN(C(=O)Cn2nc(C(F)F)cc2C(F)F)CC1 (stereo not drawn)" result_number=3.51
compound=CCOC(=O)C1(C#N)CCN(C(=O)Cn2nc(C(F)F)cc2C(F)F)CC1 result_number=2.55
compound="COCCOC(=O)C1(c2nc(C3=NOC(c4c(Cl)cccc4OS(C)(=O)=O)C3)cs2)CCN(C(=O)Cn2nc(C(F)F)cc2C(F)F)CC1 (stereo not drawn)" result_number=3.48
compound=CC(C)(C)OC(=O)C1(C#N)CCN(C(=S)Nc2ccc(OC(F)(F)F)cc2)CC1 result_number=4.01
compound=CC(C)(C)OC(=O)C1(C#N)CCN(C(=S)Nc2ccccc2C(F)(F)F)CC1 result_number=3.50
compound="CCOC(=O)C1(c2nc(C3=NOC(c4ccccc4)C3)cs2)CCN(C(=O)Cn2nc(C(F)F)cc2C(F)F)CC1 (stereo not drawn)" result_number=3.76
compound="C=CCOC(=O)C1(c2nc(C3=NOC(c4c(F)cccc4F)C3)cs2)CCN(C(=O)Cn2nc(C(F)F)cc2C(F)F)CC1 (stereo not drawn)" result_number=3.83
compound="O=C(Cn1nc(C(F)F)cc1C(F)F)N1CCC(C(=O)OCc2ccccc2)(c2nc(C3=NOC(c4ccccc4)C3)cs2)CC1 (stereo not drawn)" result_number=4.26
compound="CSCCOC(=O)C1(c2nc(C3=NOC(c4ccccc4)C3)cs2)CCN(C(=O)Cn2nc(C(F)F)cc2C(F)F)CC1 (stereo not drawn)" result_number=3.89
compound="C#CCOc1ccc(F)c(F)c1C1CC(c2csc(C3(C(=O)OC(C)C)CCN(C(=O)Cn4nc(C(F)F)cc4C(F)F)CC3)n2)=NO1 (stereo not drawn)" result_number=4.09
compound=COC(=O)C1(C(N)=S)CCN(C(=O)Cn2nc(C(F)F)cc2C)CC1 result_number=1.68
compound="CC(C)OC(=O)C1(c2nc(C3=NOC(c4c(F)cccc4F)C3)cs2)CCN(C(=O)Cn2nc(C(F)F)cc2C(F)F)CC1 (stereo not drawn)" result_number=3.99
compound="COC(=O)C1(c2nc(C3=NOC(c4c(F)cccc4F)C3)cs2)CCN(C(=O)Cn2nc(C(F)F)cc2C)CC1 (stereo not drawn)" result_number=3.17
compound=N#CC1(C(=O)O)CCN(C(=O)Nc2ccc(Cl)c(C(F)(F)F)c2)CC1 result_number=2.42

----------
- Test: LogP by HPLC on reversed phase columns (EEC directive 79/831 Annex V.A8)
- Format: physicochemical
Measured Log P[a], listed per entry.
Property Label: Log P[a]

compound="C#CCOc1ccc(F)c(F)c1C1CC(c2csc(C3(C(=O)OCC)CCN(C(=O)Cn4nc(C(F)F)cc4C(F)F)CC3)n2)=NO1 (stereo not shown) [Example I-28]" result_number=3.85
compound="C#CCOc1ccccc1C1CC(c2csc(C3(C(=O)OCC=C)CCN(C(=O)Cn4nc(C(F)F)cc4C(F)F)CC3)n2)=NO1 (stereo not shown) [Example I-45]" result_number=3.96
compound="COC(=O)C1(C#N)CCN(C(=O)Cn2nc(C(F)(F)F)cc2C)CC1 [IV-7]" result_number=2.32
compound="C#CCOc1ccccc1C1CC(c2csc(C3(C(=O)OCCSC)CCN(C(=O)Cn4nc(C(F)F)cc4C(F)F)CC3)n2)=NO1 (stereo not shown) [Example I-51]" result_number=4.01
compound="COC(=O)C1(c2nc(C3=NOC(c4ccccc4OS(C)(=O)=O)C3)cs2)CCN(C(=O)Nc2cn(C(F)F)nc2C)CC1 (stereo not shown) [Example I-10]" result_number=2.64
compound="O=C(Cn1nc(C(F)F)cc1C(F)F)N1CCC(C(=O)OC2CCOC2)(c2nc(C3=NOC(c4ccccc4)C3)cs2)CC1 (stereo not shown) [Example I-56]" result_number=3.39
compound="COC(=O)C1(C(N)=S)CCN(C(=O)Nc2cc(C)ccc2C)CC1 [II-15]" result_number=2.02
